Each recorded value in this set is attributed to ChEMBL document CHEMBL1146889.

Biological target: Beta-lactamase L1 (Stenotrophomonas maltophilia)
Assay: Inhibition of Stenotrophomonas maltophilia L1 metallo beta lactamase at 200 uM
assay_readout: inhibition (%)
Numeric answer only, unit % assumed.

Worked set:
O=C(NC(CCS)C(=O)N[C@H](Cc1ccccc1)C(=O)O)c1ccco1 (some centres undefined) : 41
Cc1cc(C(=O)NC(CCS)C(=O)N[C@H](Cc2ccccc2)C(=O)O)cc(C)c1O (some centres undefined) : 81
O=C(N[C@H](Cc1ccccc1)C(=O)O)C(CCS)NC(=O)C(c1ccccc1)c1ccccc1 (some centres undefined) : 61
O=C(O)CCC(=O)NC(CCS)C(=O)N[C@H](Cc1ccccc1)C(=O)O (some centres undefined) : 41
O=C(Cc1c[nH]cn1)NC(CCS)C(=O)N[C@H](Cc1ccccc1)C(=O)O (some centres undefined) : 41

### Prompt Please report the recorded inhibition for O=C(NC(CCS)C(=O)N[C@H](Cc1ccccc1)C(=O)O)C1CCCC1 (some centres undefined) .
### Response 61

### Prompt For Cc1ccc(C(=O)NC(CCS)C(=O)N[C@H](Cc2ccccc2)C(=O)O)c(Cl)n1 (some centres undefined) then?
### Response 61

### Prompt For O=C(/C=C\c1c[nH]c2ccccc12)NC(CCS)C(=O)N[C@H](Cc1ccccc1)C(=O)O (some centres undefined) then?
### Response 21

### Prompt For O=C(NC(CCS)C(=O)N[C@H](Cc1ccccc1)C(=O)O)c1ccccc1C(=O)c1ccccc1 (some centres undefined) then?
### Response 41

### Prompt For C=C(C(=O)NC(CCS)C(=O)N[C@H](Cc1ccccc1)C(=O)O)C(F)(F)F (some centres undefined) then?
### Response 61

### Prompt For O=C(NC(CCS)C(=O)N[C@H](Cc1ccccc1)C(=O)O)c1cc[nH]c1 (some centres undefined) then?
### Response 41

### Prompt For O=C(Cc1cccc2ccccc12)NC(CCS)C(=O)N[C@H](Cc1ccccc1)C(=O)O (some centres undefined) then?
### Response 61

###

Entries annotated with measured inhibition
Biological target: Beta-lactamase L1 (Stenotrophomonas maltophilia) (UniProt P52700)
Sequence (P52700 34-290 limits assumed): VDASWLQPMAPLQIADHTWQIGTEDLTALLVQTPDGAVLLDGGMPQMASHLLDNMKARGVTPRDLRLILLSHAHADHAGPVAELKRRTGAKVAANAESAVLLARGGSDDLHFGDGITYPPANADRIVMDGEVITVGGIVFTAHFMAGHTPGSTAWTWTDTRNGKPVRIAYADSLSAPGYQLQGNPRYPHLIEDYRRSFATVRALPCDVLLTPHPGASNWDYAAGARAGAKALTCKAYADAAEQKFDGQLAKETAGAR
Test: Inhibition of Stenotrophomonas maltophilia L1 metallo beta lactamase at 200 uM
Answer with the figure and its unit, nothing else.

### Prompt Please report the recorded inhibition for O=C(NC(CCS)C(=O)N[C@H](Cc1ccccc1)C(=O)O)c1cc2cc(Cl)ccc2[nH]1 (some centres not stated) .
### Response 81%

### Prompt For O=C(O)c1cccnc1C(=O)NC(CCS)C(=O)N[C@H](Cc1ccccc1)C(=O)O (some centres not stated) then?
### Response 41%

### Prompt For Nc1nc(CC(=O)NC(CCS)C(=O)N[C@H](Cc2ccccc2)C(=O)O)cs1 (some centres not stated) then?
### Response 41%

### Prompt For Cc1ccc(C(=O)NC(CCS)C(=O)N[C@H](Cc2ccccc2)C(=O)O)c(O)n1 (some centres not stated) then?
### Response 61%

###

Molecular target: Beta-lactamase L1 (Stenotrophomonas maltophilia) (UniProt P52700)
Test: Inhibition of Stenotrophomonas maltophilia L1 metallo beta lactamase at 200 uM
assay_readout: inhibition
Answer with the figure and its unit, nothing else.

Worked set:
O=C(NC(CCS)C(=O)N[C@H](Cc1ccccc1)C(=O)O)c1ccc(-c2ccccc2[N+](=O)[O-])o1 (stereo partly drawn) : 81%
O=C(CC(O)C(=O)O)NC(CCS)C(=O)N[C@H](Cc1ccccc1)C(=O)O (stereo partly drawn) : 41%
O=C(CO)NC(CCS)C(=O)N[C@H](Cc1ccccc1)C(=O)O (stereo partly drawn) : 41%
O=C(NC(CCS)C(=O)N[C@H](Cc1ccccc1)C(=O)O)c1ccc([N+](=O)[O-])c(O)c1 (stereo partly drawn) : 61%
O=C(NC(CCS)C(=O)N[C@H](Cc1ccccc1)C(=O)O)c1cccnc1S (stereo partly drawn) : 61%

Could you now consider this next compound?
### Prompt Item: O=C(Cc1ccc(Br)cc1)NC(CCS)C(=O)N[C@H](Cc1ccccc1)C(=O)O (stereo partly drawn) Test system: Beta-lactamase L1 (Stenotrophomonas maltophilia) (UniProt P52700) Read-out: inhibition Value: ?
### Response 81%

###

Entries annotated with measured inhibition
Biological target: Beta-lactamase L1 (Stenotrophomonas maltophilia)
Assay: Inhibition of Stenotrophomonas maltophilia L1 metallo beta lactamase at 200 uM
Numeric answer only, unit % assumed.

CCCCc1ccc(C(=O)NC(CCS)C(=O)N[C@H](Cc2ccccc2)C(=O)O)nc1 (stereo in doubt; 91) : 81
O=C(CC12CC3CC(CC(C3)C1)C2)NC(CCS)C(=O)N[C@H](Cc1ccccc1)C(=O)O (some centres not stated) : 61
O=C(NC(CCS)C(=O)N[C@H](Cc1ccccc1)C(=O)O)c1ccc([N+](=O)[O-])cc1 (some centres not stated) : 41
O=C(O)c1cc(O)cc(C(=O)NC(CCS)C(=O)N[C@H](Cc2ccccc2)C(=O)O)c1 (stereo in doubt; 49) : 81
Cc1cn(C)c(CC(=O)NC(CCS)C(=O)N[C@H](Cc2ccccc2)C(=O)O)c1C(=O)O (some centres not stated) : 41

### Prompt Please report the recorded inhibition for O=C(NC(CCS)C(=O)N[C@H](Cc1ccccc1)C(=O)O)c1ccc2cc[nH]c2c1 (some centres not stated) .
### Response 41

### Prompt For CC(=O)Nc1ccc(CC(=O)NC(CCS)C(=O)N[C@H](Cc2ccccc2)C(=O)O)cc1[N+](=O)[O-] (some centres not stated) then?
### Response 81

### Prompt For O=C(CCC1CCCCC1)NC(CCS)C(=O)N[C@H](Cc1ccccc1)C(=O)O (some centres not stated) then?
### Response 81

###

Target: Beta-lactamase L1 (Stenotrophomonas maltophilia) (UniProt P52700)
Assay: Inhibition of Stenotrophomonas maltophilia L1 metallo beta lactamase at 200 uM
assay_readout: inhibition (%)
Numeric answer only, unit % assumed.

Worked set:
Cc1occc1C(=O)NC(CCS)C(=O)N[C@H](Cc1ccccc1)C(=O)O (some centres undefined) : 41
CC(=O)Oc1ccccc1C(=O)NC(CCS)C(=O)N[C@H](Cc1ccccc1)C(=O)O (some centres undefined) : 41
O=C(NC(CCS)C(=O)N[C@H](Cc1ccccc1)C(=O)O)c1cccnc1 (some centres undefined) : 61

Could you now consider this next compound?
### Prompt Please report the recorded inhibition for CCCC(=O)NC(CCS)C(=O)N[C@H](Cc1ccccc1)C(=O)O (some centres undefined) .
### Response 41
